Tested System: CCR5 (Homo sapiens)
Sequence (P51681 whole entry): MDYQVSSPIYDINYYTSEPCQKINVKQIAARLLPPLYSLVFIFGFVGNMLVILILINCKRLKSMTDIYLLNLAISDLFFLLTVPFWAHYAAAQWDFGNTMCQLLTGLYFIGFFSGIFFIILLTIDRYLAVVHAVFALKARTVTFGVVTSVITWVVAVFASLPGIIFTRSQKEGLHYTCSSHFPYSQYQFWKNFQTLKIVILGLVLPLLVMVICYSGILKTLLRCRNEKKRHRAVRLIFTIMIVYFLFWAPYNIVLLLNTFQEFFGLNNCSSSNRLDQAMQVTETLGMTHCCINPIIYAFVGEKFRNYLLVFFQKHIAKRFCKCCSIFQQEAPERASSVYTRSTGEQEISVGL
Assay Protocol: Calcium mobilization assay (RANTES-induced, Fluo-4 AM)
Assay Context: CHO cells stably expressing CCR5 and Gα16; RANTES 30 nM; read-out: IC50 (antagonistic activity against CCR5)
pIC50: −log10 of the molar value.
Quantity Measured: pIC50

compound="O=C(NC(CCN1CCN(c2ccnc3cc(Cl)ccc23)CC1)c1ccccc1)C1CCC(F)(F)CC1 (stereo not shown) [Compound 2k]" result_operator== reported_result=6.17
compound="O=C(N[C@@H](CCN1CCN(c2ccnc3cc(Cl)ccc23)CC1)c1ccccc1)C1CCC(F)(F)CC1 [Compound 2]" result_operator== reported_result=6.16
compound="O=C(CCC(=O)N1CCN(c2ccnc3cc(Cl)ccc23)CC1)N1CCN(c2ccnc3cc(Cl)ccc23)CC1 [Compound 1]" result_operator== reported_result=5.70
compound="O=C(N[C@@H](CCN1CCN(c2ncccn2)CC1)c1ccccc1)C1CCC(F)(F)CC1 [Compound 2g]" result_operator=< reported_result=6.00
compound="O=C(N[C@@H](CCN1CCN(c2ccnc3cc(Cl)ccc23)CC1)c1ccccc1)C1CCCCC1 [Compound 2b]" result_operator== reported_result=5.58
compound="O=C(N[C@@H](CCN1CCN(c2ccncc2)CC1)c1ccccc1)C1CCC(F)(F)CC1 [Compound 2i]" result_operator=< reported_result=5.00
compound="O=C(N[C@@H](CCN1CCN(c2ccc3ccccc3n2)CC1)c1ccccc1)C1CCC(F)(F)CC1 [Compound 2j]" result_operator== reported_result=6.63
